# method description: Rat pharmacokinetic-pharmacodynamic model, skin concentration
# Type: in vivo
# details: topical, 400 mg of 1% cream on 16 cm^2, once daily for 5 days, 1% cream 400 mg once daily 5 days, 24 h after last dose
readout type: concentration at 24 h after the last dose (ng/g)
Write down the numeric answer in ng/g and omit the unit.

Requested read-out: concentration at 24 h after the last dose. Entry: NC/C=C(\F)C(F)(F)S(=O)(=O)c1ccccc1 [PXS-6302]
9300

---

Listed here: molecules with reported IC50 for UniProt:P33072.
Sequence (P33072 170-418): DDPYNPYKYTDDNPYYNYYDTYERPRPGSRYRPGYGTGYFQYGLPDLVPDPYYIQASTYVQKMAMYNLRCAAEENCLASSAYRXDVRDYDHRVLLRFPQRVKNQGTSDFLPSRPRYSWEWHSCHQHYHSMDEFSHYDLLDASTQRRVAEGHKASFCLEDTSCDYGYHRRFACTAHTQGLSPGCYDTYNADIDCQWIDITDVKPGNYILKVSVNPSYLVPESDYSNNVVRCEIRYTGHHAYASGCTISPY
Write down the numeric answer in µM and omit the unit.

{"molecule": "NC/C(=C/F)CCc1ccc(F)cc1 [Mofegiline, mofegiline, reference compound]", "IC50 / µM": 56}
{"molecule": "NC/C=C(\\F)CNc1ccccc1", "IC50 / µM": 13.6}
{"molecule": "NC/C=C(\\F)CN1CCc2ccccc21", "IC50 / µM": 10.8}
{"molecule": "NC/C=C(/F)COc1ccccc1", "IC50 / µM": 13.5}

// next entry
Requested read-out: IC50. Entry: NC/C=C(\F)CS(=O)(=O)c1ccccc1
2
